Test System: PDI (Homo sapiens, UniProt P07237)
Sequence (P07237 18-508, species assumed): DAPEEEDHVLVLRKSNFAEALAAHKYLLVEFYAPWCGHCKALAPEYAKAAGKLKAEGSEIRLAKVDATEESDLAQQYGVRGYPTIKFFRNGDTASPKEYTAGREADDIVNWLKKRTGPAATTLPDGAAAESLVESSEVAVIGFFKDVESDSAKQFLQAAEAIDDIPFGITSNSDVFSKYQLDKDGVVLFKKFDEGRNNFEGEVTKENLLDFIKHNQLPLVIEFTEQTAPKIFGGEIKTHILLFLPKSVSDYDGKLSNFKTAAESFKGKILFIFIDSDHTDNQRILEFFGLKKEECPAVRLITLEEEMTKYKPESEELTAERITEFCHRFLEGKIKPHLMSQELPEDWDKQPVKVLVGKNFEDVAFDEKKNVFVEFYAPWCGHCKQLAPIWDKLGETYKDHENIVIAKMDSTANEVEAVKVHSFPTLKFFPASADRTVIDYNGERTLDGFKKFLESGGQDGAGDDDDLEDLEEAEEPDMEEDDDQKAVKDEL
Measured IC50, listed per entry.
Return type: number; implicit unit µM.

**Q:** Identify the measured IC50 of O=C(CCl)Nc1nc(-c2cccc([N+](=O)[O-])c2)cs1 for PDI (Homo sapiens, UniProt P07237).
**A:** 0.39

**Q:** Identify the measured IC50 of O=C(CCl)Nc1cc(S(=O)(=O)N(C(=O)CCl)c2cccc(Cl)c2)ccc1Cl for PDI (Homo sapiens, UniProt P07237).
**A:** 1.46

More entries:
**Q:** Identify the measured IC50 of CN(C)S(=O)(=O)c1cc(NC(=O)CCl)ccc1Cl for PDI (Homo sapiens, UniProt P07237).
**A:** 3.13

----------
Test System: endogenous GSTO1 (Homo sapiens)
Sequence (P78417 1-241): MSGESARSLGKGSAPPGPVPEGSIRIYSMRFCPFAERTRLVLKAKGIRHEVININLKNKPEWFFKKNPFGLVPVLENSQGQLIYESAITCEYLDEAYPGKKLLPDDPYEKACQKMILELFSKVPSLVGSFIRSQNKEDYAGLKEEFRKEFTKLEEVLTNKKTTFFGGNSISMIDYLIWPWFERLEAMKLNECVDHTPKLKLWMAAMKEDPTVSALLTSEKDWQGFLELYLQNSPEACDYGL
Experimental Protocol: In-gel fluorescence competitive CMFDA binding assay, endogenous GSTO1 in HCT116
Measured Parameter: IC50 (µM)
Return type: number; implicit unit µM.

**Q:** Field request: IC50 | item: O=C(CCl)Nc1cc(F)c(F)cc1NC(=O)CCl [4a]
**A:** 3.9

----------
Test System: GSTO1 (Homo sapiens, UniProt P78417)
Experimental Protocol: GSTO1 substrate assay (reduction of 4-NPG)
Measurement Context: 10 µM
Measured GSTO substrate assay % Inhibition at 10 µM, listed per entry.
Return type: number; implicit unit %.

A selection of reference data follows.
**Q:** Field request: GSTO substrate assay % Inhibition at 10 µM | item: CC(=O)c1cc2c(cc1NC(=O)CCl)OCO2 [C1-9]
**A:** 12.5

**Q:** Field request: GSTO substrate assay % Inhibition at 10 µM | item: CCOc1cc2c(cc1CNC(=O)CCl)OC(C)C2 (centres unmarked) [C3-5]
**A:** 85.1

More entries:
**Q:** Field request: GSTO substrate assay % Inhibition at 10 µM | item: O=C(CCl)N(CC(F)(F)F)c1ccc(Cl)cc1 [C4-1]
**A:** 73.0

**Q:** Field request: GSTO substrate assay % Inhibition at 10 µM | item: Cc1ccc(-c2oc(NC(=O)CCl)c(C#N)c2-c2ccc(C)cc2)cc1 [C2-28]
**A:** -2.8

**Q:** Field request: GSTO substrate assay % Inhibition at 10 µM | item: O=C(CCl)Nc1c(Br)cc([N+](=O)[O-])cc1Br [C1-3]
**A:** -4.9

**Q:** Field request: GSTO substrate assay % Inhibition at 10 µM | item: O=C(CCl)NCCC12CC3CC(CC(C3)C1)C2 [C3-34]
**A:** 78.6

**Q:** Field request: GSTO substrate assay % Inhibition at 10 µM | item: N#CC(c1ccccc1)N1CCN(C(=O)CCl)CC1 (centres unmarked) [C5-8]
**A:** 93.8

**Q:** Field request: GSTO substrate assay % Inhibition at 10 µM | item: Cc1ccc(CSCCNC(=O)CCl)cc1 [C3-15]
**A:** 5.1

**Q:** Field request: GSTO substrate assay % Inhibition at 10 µM | item: COC(=O)c1c(-c2ccccc2Cl)csc1NC(=O)CCl [C2-10]
**A:** 88.4

**Q:** Field request: GSTO substrate assay % Inhibition at 10 µM | item: O=C(CCl)N1CCN(Cc2ccc(Br)s2)CC1 [C5-10]
**A:** 68.3

**Q:** Field request: GSTO substrate assay % Inhibition at 10 µM | item: NC(=O)CCN(C(=O)CCl)c1ccccc1 [C4-3]
**A:** 32.3

**Q:** Field request: GSTO substrate assay % Inhibition at 10 µM | item: O=C(CCl)NCCCSc1ccccc1 [C3-14]
**A:** 78.4

**Q:** Field request: GSTO substrate assay % Inhibition at 10 µM | item: O=C(CCl)N1CCC(Cc2ccccc2)CC1 [C5-1]
**A:** 83.5

**Q:** Field request: GSTO substrate assay % Inhibition at 10 µM | item: CCN(c1ccc(NC(=O)CCl)cc1)C(C)C [C1-15]
**A:** 91.3

**Q:** Field request: GSTO substrate assay % Inhibition at 10 µM | item: Cc1ccc(C)c(S(=O)(=O)N2CCN(C(=O)CCl)CC2)c1 [C5-12]
**A:** 84.9

**Q:** Field request: GSTO substrate assay % Inhibition at 10 µM | item: Cc1cc(C)c(NC(=O)CNC(=O)CCl)c(C)c1 [C3-24]
**A:** 72.3

**Q:** Field request: GSTO substrate assay % Inhibition at 10 µM | item: CCN(C(=O)CCl)C1CCS(=O)(=O)C1 (centres unmarked) [C4-4]
**A:** -0.8

**Q:** Field request: GSTO substrate assay % Inhibition at 10 µM | item: N#Cc1ccccc1S(=O)(=O)N1CCN(C(=O)CCl)CC1 [C5-13]
**A:** 98.1

**Q:** Field request: GSTO substrate assay % Inhibition at 10 µM | item: O=C(CCl)N1CCN(S(=O)(=O)c2ccc3c(c2)OCCO3)CC1 [C5-15]
**A:** 63.7

**Q:** Field request: GSTO substrate assay % Inhibition at 10 µM | item: Cc1cc(S(=O)(=O)N(C)C)cc(NC(=O)CCl)c1C [C1-26]
**A:** 31.1

**Q:** Field request: GSTO substrate assay % Inhibition at 10 µM | item: CCOc1ccc(/C=C/C2=Cc3c(sc(NC(=O)CCl)c3C#N)C(C)(C)C2)cc1 [C2-21]
**A:** 99.5

**Q:** Field request: GSTO substrate assay % Inhibition at 10 µM | item: O=C(CCl)Nc1nc(-c2cccc([N+](=O)[O-])c2)cs1 [C2-22]
**A:** 84.9

**Q:** Field request: GSTO substrate assay % Inhibition at 10 µM | item: CC(NC(=O)CCl)c1cc2ccccc2o1 (centres unmarked) [C3-29]
**A:** 73.0
